Molecular target: succinate dehydrogenase (SDH), WT (IPO323) (Zymoseptoria tritici (Mycosphaerella graminicola), UniProt F9X9V6+F9XG45+F9XH52)
Sequence (F9XG45 entry or part of it): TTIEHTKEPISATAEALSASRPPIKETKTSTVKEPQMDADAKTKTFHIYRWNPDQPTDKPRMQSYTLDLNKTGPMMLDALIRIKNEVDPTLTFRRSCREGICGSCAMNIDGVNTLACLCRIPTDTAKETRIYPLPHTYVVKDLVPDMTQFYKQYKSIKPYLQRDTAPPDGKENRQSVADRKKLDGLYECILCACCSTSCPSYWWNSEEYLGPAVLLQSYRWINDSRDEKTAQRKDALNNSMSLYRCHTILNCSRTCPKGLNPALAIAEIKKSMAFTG
Sequence (F9X9V6 entry or part of it): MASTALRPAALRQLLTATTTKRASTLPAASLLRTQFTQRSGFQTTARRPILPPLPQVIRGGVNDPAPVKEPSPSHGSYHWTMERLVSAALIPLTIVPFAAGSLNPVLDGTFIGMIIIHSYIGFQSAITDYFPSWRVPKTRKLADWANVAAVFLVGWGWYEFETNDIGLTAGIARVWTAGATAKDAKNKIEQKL
Sequence (F9XH52 entry or part of it): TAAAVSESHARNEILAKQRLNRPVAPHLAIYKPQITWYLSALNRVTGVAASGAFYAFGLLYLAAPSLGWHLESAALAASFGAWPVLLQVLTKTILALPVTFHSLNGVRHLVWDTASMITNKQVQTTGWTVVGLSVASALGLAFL
Experiment: in vitro succinate: Q0/DCPIP activity test, purified mitochondria
Type: biochemical
Settings: read-out: IC50 in vitro, ±S.E. (triplicate)
Procedure: To explore the sensitivity profiles conferred by amino acid substitutions at the cellular and mitochondrial level, we determined sensitivity towards 4 different compounds for 26 of the identified substitution types both in vivo using liquid culture growth (AE media) and in vitro using purified mitochondria and the succinate: Q0/DCPIP activity test (Table 3). […] Resistance factors (RF) were determined as the ratio IC50mutant/IC50WT. […]
Assay metric: pIC50
// pIC50 is dimensionless: -log10 of concentration (M)

Ask: GET /values?readout=pIC50&item= "CC1=C(C(=O)Nc2ccccc2)SCCO1"
Reply: 5.94

Ask: GET /values?readout=pIC50&item= "O=C(NCCc1ncc(C(F)(F)F)cc1Cl)c1ccccc1C(F)(F)F"
Reply: 7.36

Ask: GET /values?readout=pIC50&item= "O=C(Nc1ccccc1-c1ccc(Cl)cc1)c1cccnc1Cl"
Reply: 7.22

Reference for the values: paper PMC3334918
